The reported numbers originate from patent US12017994B2.

Target: purified E. coli GUS (Escherichia coli (strain K12))
Sequence (P05804 whole entry, looked up): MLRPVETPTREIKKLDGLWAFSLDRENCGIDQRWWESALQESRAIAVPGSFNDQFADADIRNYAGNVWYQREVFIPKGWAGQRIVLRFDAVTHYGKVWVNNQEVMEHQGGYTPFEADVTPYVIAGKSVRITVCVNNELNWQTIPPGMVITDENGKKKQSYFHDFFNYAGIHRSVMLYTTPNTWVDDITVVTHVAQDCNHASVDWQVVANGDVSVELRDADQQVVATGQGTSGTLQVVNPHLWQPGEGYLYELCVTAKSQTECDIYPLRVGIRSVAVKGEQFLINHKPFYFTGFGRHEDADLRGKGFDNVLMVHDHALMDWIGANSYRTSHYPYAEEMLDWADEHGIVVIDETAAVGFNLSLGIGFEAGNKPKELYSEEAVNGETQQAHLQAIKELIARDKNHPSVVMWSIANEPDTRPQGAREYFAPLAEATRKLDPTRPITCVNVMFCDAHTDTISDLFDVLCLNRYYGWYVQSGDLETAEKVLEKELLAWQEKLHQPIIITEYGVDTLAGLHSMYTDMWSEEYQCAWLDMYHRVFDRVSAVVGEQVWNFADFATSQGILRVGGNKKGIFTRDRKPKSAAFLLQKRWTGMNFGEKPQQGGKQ
Experiment: PNPG-PNP GUS cleavage assay, purified E. coli GUS
Settings: preincubation one minute to four hours
Test Readout: IC50

The recorded IC50 for CCOc1ccc(NC(=S)N(CCO[C@@H]2O[C@H](C(=O)O)[C@@H](O)[C@H](O)[C@H]2O)Cc2cc3cc(C)cc(C)c3[nH]c2=O)cc1 is ~1000 nM

----------
pIC50: −log10 of the molar value.
Assign pIC50 to each entry below.

Readout pIC50 for Cc1cc(C)c2[nH]c(=O)c(C(C)N(CCO)C(=O)Nc3ccccc3C)cc2c1 (stereo not drawn) , test system Purified bacterial β-glucuronidases (Escherichia coli), was < 4.30

Value sought: pIC50, system Purified bacterial β-glucuronidases (Escherichia coli), item Cc1cc(C)c2[nH]c(=O)c(CN(CCO)C(=O)Nc3cccnc3)cc2c1 . Result: < 4.30

Form field, pIC50 with Purified bacterial β-glucuronidases (Escherichia coli), item COc1ccc(NC(=O)N(CCO)C(C)c2cc3cc(C)cc(C)c3[nH]c2=O)cc1 (stereo not drawn) : < 4.30
